Record form. Attribute: target mRNA inhibition. Fill in for each entry.
target_of_assay: IRF5
reported_conditions: ASO, KARPAS-229, 4 µM
After the bases stand the sugars from the 5' end (letter, count) and the backbone: PS all phosphorothioate, else s phosphorothioate and o phosphodiester by linkage. Methylation of C is not given here. e = 2'-O-(2-methoxyethyl) (MOE); k = constrained ethyl (cEt); d = 2'-deoxy (DNA)
Report as a plain number; the unit % is understood.

Input: I am curious: what target mRNA inhibition value has been reported for TGCACTGACACAGGCG (sugars kkdddddddddkdkdk, PS) ?
Output: 0

Input: I am curious: what target mRNA inhibition value has been reported for AGGAAGTGAGTCTCAA (sugars kkdddddddddkekek, PS) ?
Output: 42

Input: I am curious: what target mRNA inhibition value has been reported for TTATTTCTGCTCCAGG (sugars kddddddddddkekek, PS) ?
Output: 0

Input: I am curious: what target mRNA inhibition value has been reported for GGTCTGGCCCTTTTGG (sugars kkddddddddddkeke, PS) ?
Output: 0

Input: I am curious: what target mRNA inhibition value has been reported for GAGTCATGGGCTGAGG (sugars k2 d8 e4 k2, PS) ?
Output: 5

Input: I am curious: what target mRNA inhibition value has been reported for ATGAGTCATGGGCTGA (sugars kkddddddddddkeke, PS) ?
Output: 0

Input: I am curious: what target mRNA inhibition value has been reported for ATTCCAATTTTGCATT (sugars k3 d10 k3, PS) ?
Output: 21

Input: I am curious: what target mRNA inhibition value has been reported for TGAGTCATGGGCTGAG (sugars k3 d10 k3, PS) ?
Output: 0

Input: I am curious: what target mRNA inhibition value has been reported for TCACCACTGTGTACCC (sugars kkkddddddddkekek, PS) ?
Output: 0

Input: I am curious: what target mRNA inhibition value has been reported for CCAATGCAACATCCAT (sugars k3 d10 k3, PS) ?
Output: 0

Input: I am curious: what target mRNA inhibition value has been reported for ATGAGTCATGGGCTGA (sugars kddddddddddkekek, PS) ?
Output: 0

Input: I am curious: what target mRNA inhibition value has been reported for TGAGTCTCAAACCAGG (sugars k3 d10 k3, PS) ?
Output: 16

Input: I am curious: what target mRNA inhibition value has been reported for ATTTTGTGACTGTATT (sugars k3 d10 k3, PS) ?
Output: 4

Input: I am curious: what target mRNA inhibition value has been reported for GTCTGGCCCTTTTGGA (sugars k2 d8 e4 k2, PS) ?
Output: 0

Input: I am curious: what target mRNA inhibition value has been reported for GTTATCTCCGTCCTGG (sugars kekdddddddddeekk, PS) ?
Output: 13

Input: I am curious: what target mRNA inhibition value has been reported for GAGCAAAGGGTGAGTA (sugars k3 d10 k3, PS) ?
Output: 0

Input: I am curious: what target mRNA inhibition value has been reported for GTGTATTTCCCTGTCT (sugars k3 d9 k3 e1, PS) ?
Output: 30

Input: I am curious: what target mRNA inhibition value has been reported for CATCTCCACATCAGTC (sugars kdddddddddkekeke, PS) ?
Output: 32

Input: I am curious: what target mRNA inhibition value has been reported for TGAGTCATGGGCTGAG (sugars kkkdddddddddkeke, PS) ?
Output: 17

Input: I am curious: what target mRNA inhibition value has been reported for CACTGACACAGGCGGA (sugars kkddddddddkekekk, PS) ?
Output: 0

Input: I am curious: what target mRNA inhibition value has been reported for AAGGGCACAGCGCAGG (sugars kkkddddddddkdkdk, PS) ?
Output: 12

Input: I am curious: what target mRNA inhibition value has been reported for TTCTGCAGGGAGTCAG (sugars k3 d10 k3, PS) ?
Output: 0

Input: I am curious: what target mRNA inhibition value has been reported for GGAGTGAGACGAGCAA (sugars kkdddddddddkekek, PS) ?
Output: 27

Input: I am curious: what target mRNA inhibition value has been reported for CTTGGTCTTGACCTCC (sugars kkdddddddddkdkdk, PS) ?
Output: 13

Input: I am curious: what target mRNA inhibition value has been reported for CCAATGCAACATCCAT (sugars k2 d9 e3 k2, PS) ?
Output: 0

Input: I am curious: what target mRNA inhibition value has been reported for GGAGTGAGACGAGCAA (sugars k3 d10 k3, PS) ?
Output: 37

Input: I am curious: what target mRNA inhibition value has been reported for CCACTGTGTACCCCAT (sugars kkddddddddkekekk, PS) ?
Output: 0

Input: I am curious: what target mRNA inhibition value has been reported for CGGTCTTTGAGGTCTG (sugars kddddddddddkekek, PS) ?
Output: 68

Input: I am curious: what target mRNA inhibition value has been reported for AAACCATTCTATGCCT (sugars k3 d10 k3, PS) ?
Output: 0

Entry source: the OligoGym collection
